# System: NCI-H522
# Assay Protocol: NCI tumour cell line growth inhibition, 48 h
Calls of active or inactive are those of the source. Cut-off read from the data, not from the text of the source: active = GI50 up to about 1.1 µM and inactive = higher.
Possible outcomes: active, inactive

• C/C(CC(=O)Nc1ccc([N+](=O)[O-])cc1)=N\Nc1ccc([N+](=O)[O-])cc1[N+](=O)[O-] = inactive
• CCCCCC(=O)OCC(=O)[C@H]1[C@H](C)C[C@H]2[C@@H]3C[C@H](F)C4=C/C(=N/OC(=O)c5cccc6c(=O)c7ccccc7[nH]c56)C=C[C@]4(C)[C@H]3[C@@H](O)C[C@@]21C = inactive
• CC(=O)Oc1c(C)cc2c(c1C)C(C)CN2C(C)=O (stereo not given) = inactive
• CCCCCCCCCCCCCCCCCc1cccc(OCOCCOC)c1CO = inactive
• c1ccc2c(Nc3ncco3)cccc2c1 = inactive
• Cc1ccc2nc(C(=O)O)c(=O)[nH]c2c1 = inactive
• O=C(/C=C/c1ccc(Cl)c(Cl)c1)c1ccc(F)cc1 = inactive
• C=C(Cl)C(C)(Cl)CCC(Cl)C(C)C (stereo not given) = inactive
• CCOC(=O)c1cc(=O)c2ccnc3c2n1CCS3 = inactive
• c1c2c(cc3c1OCO3)-c1cc3ccc4c(c3c[n+]1CC2)OCO4 [COPTISINE CHLORIDE] = active
• CC(C)=CC1C[C@H](C2CC=C3C2(C)CCC2[C@@]3(C)C(=O)CC3[C@]2(C)C=CC(=O)[C@]3(C)CO)CO1 (stereo not given in full) = inactive
• CCC(=O)c1ccc2[nH]c3c(C)c4c(O)cc(C)nc4c(C)c3c2c1 = inactive
• COc1ccc(C2=Nc3ccccc3N=C(SC)C2)cc1 = inactive
• CCP(=O)(CC)C(Cl)(Cl)C(=O)NC = inactive
• CC(=O)O[C@H]1CC[C@@]2(C)[C@@H](CC[C@@H]3[C@@H]2CC(=O)[C@@]2(C)[C@H]3C[C@@H]3CC(C)=CC(=O)[C@@H]32)C1 = inactive
• N/N=C(\CC1OC(=O)c2ccccc21)c1ccco1 (stereo not given) = inactive
• CCc1ccc(Nc2cc(=O)n(C)c(SCc3ccccc3)n2)cc1 = inactive
• N=c1c2ccccc2nc2oc3cc([N+](=O)[O-])ccc3n12 = inactive
• COc1ccc2c(c1)-c1nc(=S)n(CCN(C)C)c3ccc([N+](=O)[O-])c(c13)N2 = active
• C[C@@]12CC[C@H]3[C@@H]4CCC(=O)N[C@@]4(C)CC[C@@H]3[C@@]1(C)CC[C@H](OC(=O)Cc1ccc(N(CCCl)CCCl)cc1)C2 = inactive
